- Test system: M14 melanoma
- assayNotes: NCI tumour cell line growth inhibition, 48 h
measurementKind: TGI

Example results:
Task: Please report TGI for the following compound: O=C(/C=C(\S/C=C(/c1ccccc1)N1CCn2c(C(=O)c3ccccc3)c(C(=O)c3ccccc3)c(C(=O)c3ccccc3)c21)C(=O)c1ccccc1)c1ccccc1
Output: > 10 µM

Task: Give the value of TGI reported for the following: CCOC(=O)NC(OC)(C(F)(F)F)C(F)(F)F
Output: > 100 µM

Field: next compound
Task: Report TGI for Nc1ccc(C(=O)N/C(=C\c2cccc([N+](=O)[O-])c2)c2nc3[nH]c(=S)[nH]c(=O)c3[nH]2)cc1
Output: > 100 µM
